Target: recombinant human TFPI (tissue factor pathway inhibitor) (human, UniProt P10646 29-304)
Experiment: cell-based or functional assay
Listed here are binders together with their documented FXa assay OD, 10 nM Ab, 10 nM TFPI.
Please give the numeric answer without any surrounding text.

{"columns": ["binder", "FXa assay OD, 10 nM Ab, 10 nM TFPI"],
 "data": [
  ["clone 11 (antibody, V domains shown) VH: EVQLVESGGGLVKPGGSLRLSCAASGFTFSSYAMNWVRQAPGKGLEWVGTITTGGSYTYYADSVEGRFTISRDNAKNSLYLQMNSLRAEDTAVYYCARQDGNFLMDYWGQGTLVTVSS VL: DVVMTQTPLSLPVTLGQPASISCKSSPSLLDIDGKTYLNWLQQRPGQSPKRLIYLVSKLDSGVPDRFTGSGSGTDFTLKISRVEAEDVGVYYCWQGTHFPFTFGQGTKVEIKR", 0.672],
  ["clone 1023 (antibody, V domains shown, scFv on yeast at selection; human IgG4/kappa IgG as purified) VH: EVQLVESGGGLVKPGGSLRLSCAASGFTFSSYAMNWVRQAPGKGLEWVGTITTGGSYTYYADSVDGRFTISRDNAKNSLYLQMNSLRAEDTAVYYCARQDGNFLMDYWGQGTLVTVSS VL: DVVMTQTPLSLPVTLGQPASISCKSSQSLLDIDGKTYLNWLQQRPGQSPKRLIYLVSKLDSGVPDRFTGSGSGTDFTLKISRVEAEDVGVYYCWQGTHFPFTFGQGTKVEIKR", 0.691],
  ["clone 13 (antibody, V domains shown) VH: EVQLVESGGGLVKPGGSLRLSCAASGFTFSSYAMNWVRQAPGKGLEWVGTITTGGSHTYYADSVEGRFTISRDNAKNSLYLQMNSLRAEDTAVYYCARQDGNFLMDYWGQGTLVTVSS VL: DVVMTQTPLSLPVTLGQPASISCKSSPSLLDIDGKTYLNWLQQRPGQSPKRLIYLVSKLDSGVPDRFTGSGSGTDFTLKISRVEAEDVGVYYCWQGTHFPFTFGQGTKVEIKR", 0.624]
]}

Let us examine a further case.
Request: Look up FXa assay OD, 10 nM Ab, 10 nM TFPI: clone 1202 (antibody, V domains shown, scFv on yeast at selection; human IgG4/kappa IgG as purified; also called No. 1202 antibody) VH: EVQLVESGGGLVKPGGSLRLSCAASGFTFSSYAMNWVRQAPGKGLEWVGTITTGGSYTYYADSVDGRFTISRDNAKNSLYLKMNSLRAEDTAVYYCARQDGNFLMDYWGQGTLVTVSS VL: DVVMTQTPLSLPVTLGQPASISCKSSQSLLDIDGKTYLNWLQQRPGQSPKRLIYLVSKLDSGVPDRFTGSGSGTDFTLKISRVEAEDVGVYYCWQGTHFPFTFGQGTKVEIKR
Result: 0.676
